The reported numbers originate from a melting point compilation (Tetko et al.; mined from patent text by program, amines drawn as free bases though some values may be those of a salt).

Recorded melting point by entry

Examples from the recorded data:
COc1cc(C(=O)CCN(C)C)cc(OC)c1OC : 45 to 47 °C
CC(C)CCn1cc([N+](=O)[O-])cc1C(=O)Nc1cc(C(=O)NCCCN2CCOCC2)n(C)c1 : 155 to 158 °C
CC1(C)CC(=O)c2c(C(=O)Nc3ccsc3)c[nH]c2C1 : 217 to 218 °C
CCCOc1n[nH]c(=O)[nH]1 : 156 °C
CC(C)(C)OC(=O)Nc1ccccc1NC(=O)c1ccc(C#N)nc1 : 183 to 184 °C
Cn1c(SC(F)F)n[nH]c1=O : 87 °C
CCCCCCCCOC(=O)N(C[C@H](O)[C@@H](O)[C@H](O)[C@H](O)CO)C(C)CC (some centres not stated) : 101 °C
COc1ccc2cc(C(Br)Br)ccc2c1 : 116 °C

[in] Entry COC(=O)CC1C(OC(C)=O)CC(=O)C1C(=O)OC (configuration not stated) has what melting point?
[out] 54 °C

[in] Try Cc1nn(C)c2c1c1oc(=O)c(Br)c(O)c1c(=O)n2Cc1ccc(F)cc1 next.
[out] 262 to 264 °C

[in] Try CCOC(=O)c1cc(=O)c2c(OCC(O)COc3ccc(OC)cc3)cccc2o1 (configuration not stated) next.
[out] 135 to 136 °C

[in] Try CC12C=CC(O)CC1=CCC1C2CCC2(C)C(=O)CCC12 (configuration not stated) next.
[out] 138 to 140 °C

[in] Try O=c1[nH]c(=O)n(C2CC(F)C(CO)O2)cc1C(Br)=CI (configuration not stated) next.
[out] 107 °C

[in] Try CC(O)CCCOc1ccc2nc3[nH]c(=O)[nH]c3cc2c1 (configuration not stated) next.
[out] 301 to 303 °C

----------
reported.endpoint: melting point

c1cc2c3c(nnc4c3c1OCC4)CCO2 : 249 °C
CS(=O)(=O)NC1CCN(c2nc(N)nc(-c3cc(Cl)ccc3Cl)n2)C1 (stereo unspecified) : 102 to 107 °C
COC(=O)N1CC(=O)N(C)c2ccc(F)cc21 : 206 to 208 °C
N#Cc1c(-c2ccc(Cl)c(Cl)c2)[nH]c(I)c1I : > 230 °C

[in] Entry C=C1N=C(c2ccccc2F)c2cc(Cl)ccc2C(=O)C1N(C)C (stereo unspecified) has what melting point?
[out] 224 to 226 °C

[in] Try CC(=O)Nc1ccnn1-c1c(F)c(F)c(C(F)(F)F)c(F)c1F next.
[out] 102 to 104 °C

[in] Try CC(=O)C(=Cc1cccc([N+](=O)[O-])c1)C(=O)CCCCCCCCCCBr next.
[out] 64 to 67 °C

[in] Try CCNC(=O)n1nc(Oc2ncc(C(F)(F)F)cc2Cl)c(Br)c1C next.
[out] 123 to 125 °C

[in] Try CC(=O)Nc1nc(CCc2ccc(CN3CCC(NC(=O)OC(C)(C)C)C3)cc2)cs1 (stereo unspecified) next.
[out] 131 to 132 °C

[in] Try CC(CC(=O)O)c1ccc(-c2ccc(F)cc2F)cc1 (stereo unspecified) next.
[out] 109 to 110 °C

[in] Try CC1c2ccccc2-c2ccc(F)cc2N1S(=O)(=O)c1ccc(O)cc1 (stereo unspecified) next.
[out] 162 to 165 °C

[in] Try CCC1(O)OCc2c1ccnc2OC (stereo unspecified) next.
[out] 145 °C

[in] Try COc1cc(-n2c(I)nnc2I)ccc1C next.
[out] 176 °C

[in] Try COc1ccc(N2CCOCC2)c2sc(NC(=O)N(C)C3CCC(C(F)(F)F)CC3)nc12 (stereo unspecified) next.
[out] 157 to 167 °C

[in] Try CS(=O)(=O)n1cc(-c2ccccc2)c(=O)n1-c1ccccn1 next.
[out] 112 to 114 °C

[in] Try O=C(NN=Cc1c(O)ccc2cc(O)ccc12)c1cc2ccccc2cc1O next.
[out] > 280 °C
